Source listed as PubChem BioAssay (NCI).

test: NCI Yeast Anticancer Drug Screen. Data for the sgs1 mgt1 strain (AID 161);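 also: 0% = growth of cultures given vehicle only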; details: S. cerevisiae sgs1 mgt1 strain, at 5.0 µM (retest, dose inferred, filed as 0.5)
About 79,000 compounds went through this panel and 15% of them were active in at least one assay; those are over-represented in the sample as a whole. Active and inactive are the calls of the source. Rule as the data show it: active = growth inhibition above about 70%; inactive = the rest.
Outcome codes: true (active), false (inactive)

[
  {
    "MOLECULE": "CCc1c(O)c(O)c(C(C)=O)c2c(O)c(-c3c(C)cc4c(CC)c(O)c(O)c(C(C)=O)c4c3O)c(C)cc12",
    "CLASS ASSIGNMENT": "false"
  },
  {
    "MOLECULE": "COC(=O)C1=C(C(=O)OC)C2(C)OC1C(=O)C21CC1 (stereo not given)",
    "CLASS ASSIGNMENT": "false"
  },
  {
    "MOLECULE": "CC(=O)C1(C(C)=O)C2=C(C(=O)C(Cl)=C(Cl)C2=O)N2C=CC=CC21 (stereo not given)",
    "CLASS ASSIGNMENT": "true"
  },
  {
    "MOLECULE": "O=[N+]([O-])c1cc(Cl)cc(C(c2cc(Cl)cc([N+](=O)[O-])c2O)C(Cl)(Cl)Cl)c1O",
    "CLASS ASSIGNMENT": "false"
  },
  {
    "MOLECULE": "Oc1ccc(-c2ccccc2)cc1Cl",
    "CLASS ASSIGNMENT": "false"
  },
  {
    "MOLECULE": "CC(C)(C)C(=O)Nc1ccc2c(c1)C(=O)c1ccccc1C2=O",
    "CLASS ASSIGNMENT": "false"
  },
  {
    "MOLECULE": "Cc1cccc(C)c1NC(=O)/C(Cl)=C(/Cl)C(=O)O",
    "CLASS ASSIGNMENT": "true"
  },
  {
    "MOLECULE": "CN(C)Cc1ccc(C(C)(C)C)cc1-c1cc(C(C)(C)C)ccc1CN(C)C",
    "CLASS ASSIGNMENT": "false"
  },
  {
    "MOLECULE": "COc1ccc2c3c(ccc2c1)NC(C(=O)O)CC3 (stereo not given)",
    "CLASS ASSIGNMENT": "false"
  },
  {
    "MOLECULE": "CC1=C(C(=O)Nc2ccc(C)cc2C)C(c2cccc([N+](=O)[O-])c2)C(C(=O)Nc2ccc(C)cc2C)=C(C)N1",
    "CLASS ASSIGNMENT": "false"
  }
]

###

test: NCI Yeast Anticancer Drug Screen. Data for the cln2 rad14 strain (AID 165);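 also: 0% = growth equal to vehicle treated cultures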; conditions: S. cerevisiae cln2 rad14 strain, at 5.0 µM (retest, dose inferred, filed as 0.5)
The panel holds about 79,000 compounds, 15% with a hit somewhere; the sample as a whole holds those more often. Active and inactive are the calls of the source. Cut-off read from the data, not from the text of the source: active = growth inhibition above about 70%; inactive = the rest.
Outcome codes: TRUE for active, FALSE for inactive

[
  {
    "COMPOUND": "CC(C)(C)c1ccc(C(=O)C[n+]2ccc(Cl)c3ccc(Cl)cc32)cc1",
    "CLASS ASSIGNMENT": "FALSE"
  },
  {
    "COMPOUND": "COc1ccccc1NC(=O)CSC(N)=O",
    "CLASS ASSIGNMENT": "FALSE"
  },
  {
    "COMPOUND": "CCOC(=O)C1=C(Nc2ccc(Br)cc2)OC/C1=N\\NC(=O)c1ccccc1O",
    "CLASS ASSIGNMENT": "FALSE"
  },
  {
    "COMPOUND": "O=[N+]([O-])C1=Cc2cc(Cl)ccc2OC1c1cccc2ccccc12 (configuration not stated)",
    "CLASS ASSIGNMENT": "TRUE"
  },
  {
    "COMPOUND": "Cc1occc1C(=S)Nc1ccc(Cl)c(/C=N/OC(C)C)c1",
    "CLASS ASSIGNMENT": "FALSE"
  },
  {
    "COMPOUND": "Oc1ccc(N=Nc2ccc(Cl)cc2)cc1O",
    "CLASS ASSIGNMENT": "FALSE"
  },
  {
    "COMPOUND": "O=[N+]([O-])c1ccc(-c2nc3c(o2)CCC3)cc1",
    "CLASS ASSIGNMENT": "FALSE"
  },
  {
    "COMPOUND": "O=C(c1ccc(O)c(Br)c1)c1cc(Br)ccc1O",
    "CLASS ASSIGNMENT": "TRUE"
  },
  {
    "COMPOUND": "S=C(Nc1cc(Cl)cc(Cl)c1)SCc1ccccc1",
    "CLASS ASSIGNMENT": "FALSE"
  },
  {
    "COMPOUND": "CC(C)C1=CC23CCC4C(C)(C(=O)O)CCCC4(C)C2CC1CC3C#N (configuration not stated)",
    "CLASS ASSIGNMENT": "FALSE"
  },
  {
    "COMPOUND": "CCCCCCCCCCCCCCNCC(OCC)OCC",
    "CLASS ASSIGNMENT": "FALSE"
  },
  {
    "COMPOUND": "O=c1c(Cl)nsnc1Cl",
    "CLASS ASSIGNMENT": "TRUE"
  }
]

###

Measured growth inhibition values are reported for all entries that follow.
experiment: NCI Yeast Anticancer Drug Screen. Data for the bub3 strain (AID 167); details: S. cerevisiae bub3 mutant strain, at 50.0 µM, hits give high values
This is part of a sample that, as a whole, favours compounds with a hit. Of some 79,000 tested, about 15% had one in any assay.

[
  {
    "COMPOUND": "CCCCCCCCCCCCOC(=O)CC1CC(C(C)=O)C1(C)C (stereo not drawn)",
    "growth inhibition, %": 11.2
  },
  {
    "COMPOUND": "CCCCOC(=O)c1cnc[nH]c1=O",
    "growth inhibition, %": 3.55
  },
  {
    "COMPOUND": "COc1cc2c(cc1OC)C(=O)C(C)(c1ccccc1)NC2 (stereo not drawn)",
    "growth inhibition, %": 97.3
  },
  {
    "COMPOUND": "NC(CCl)=NCC1C2CC3CC(C2)CC1C3 (stereo not drawn)",
    "growth inhibition, %": 89.2
  },
  {
    "COMPOUND": "O=C1C(c2ccc([N+](=O)[O-])cc2)=C(Cl)C(=O)c2c(O)cccc21",
    "growth inhibition, %": 69.2
  },
  {
    "COMPOUND": "S=c1[nH]c(-c2ccccc2)cs1",
    "growth inhibition, %": 74
  },
  {
    "COMPOUND": "CNc1ccc(N=O)cc1",
    "growth inhibition, %": 89.2
  },
  {
    "COMPOUND": "Cc1ccccc1Oc1ccccc1N",
    "growth inhibition, %": 58.6
  },
  {
    "COMPOUND": "CCOC(=O)C(=CCC1NCCc2c1[nH]c1ccccc21)C(=O)OCC (stereo not drawn)",
    "growth inhibition, %": 92.4
  },
  {
    "COMPOUND": "CC(C)=CCC/C(C)=C/COC(=O)Nc1ccccc1",
    "growth inhibition, %": 52.8
  },
  {
    "COMPOUND": "CC(=O)OC(OC(C)=O)c1ccc2ccc3cccc4ccc1c2c34",
    "growth inhibition, %": 69
  },
  {
    "COMPOUND": "CC1C(C(=O)O)CC([N+](=O)[O-])C(Cl)C1[N+](=O)[O-] (stereo not drawn)",
    "growth inhibition, %": 74.7
  },
  {
    "COMPOUND": "COc1ccc2c(c1)Cc1ccccc1C2=O",
    "growth inhibition, %": 40.6
  }
]

###

Measured growth inhibition values are reported for all entries that follow.
test: NCI Yeast Anticancer Drug Screen. Data for the rad50 strain (AID 155);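 also: 0% = growth of vehicle-only cultures of the same strain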; settings: S. cerevisiae rad50 strain growth inhibition; at 5.0 µM (retest, dose inferred, filed as 0.5); hits give high values
Compounds without any hit were thinned out: in the full panel of roughly 79,000, 15% have a hit.
PROPERTY NAME: growth inhibition (%)

[
  {
    "COMPOUND": "COC(=O)c1cc(-c2ccc([N+](=O)[O-])cc2)c2c(=O)n(-c3ccccc3)[nH]c2n1",
    "PROPERTY NAME": "growth inhibition",
    "ASSAY VALUE": 0
  },
  {
    "COMPOUND": "CC(C)=CCC/C(C)=C/COC(=O)Nc1ccccc1",
    "PROPERTY NAME": "growth inhibition",
    "ASSAY VALUE": -7
  },
  {
    "COMPOUND": "[O-]c1c(-c2cccc3ccccc23)sc(-c2cccc3ccccc23)[n+]1-c1ccccc1",
    "PROPERTY NAME": "growth inhibition",
    "ASSAY VALUE": 5
  },
  {
    "COMPOUND": "O=C(O)Cc1c(-c2noc(-c3ccccc3)c2CC(=O)O)noc1-c1ccccc1",
    "PROPERTY NAME": "growth inhibition",
    "ASSAY VALUE": -10
  },
  {
    "COMPOUND": "O=C1OC2(CCCCC2)OC(=O)C1=Cc1ccc([N+](=O)[O-])s1",
    "PROPERTY NAME": "growth inhibition",
    "ASSAY VALUE": 9
  },
  {
    "COMPOUND": "CC(C)(Cl)C(Cl)CC/C(CBr)=C(\\Cl)CCl (stereo not drawn)",
    "PROPERTY NAME": "growth inhibition",
    "ASSAY VALUE": 28
  },
  {
    "COMPOUND": "COc1ccccc1CN1CCCN(Cc2ccccc2OC)C1c1ccccc1F",
    "PROPERTY NAME": "growth inhibition",
    "ASSAY VALUE": 2
  },
  {
    "COMPOUND": "CCN(CC)CCNc1ccc(C)c2oc3ccc(O)cc3c(=O)c12",
    "PROPERTY NAME": "growth inhibition",
    "ASSAY VALUE": 39
  },
  {
    "COMPOUND": "O=C(O)C1(Cc2ccc3c(c2)CCC3)Cc2cc3c(cc2C1)CCC3",
    "PROPERTY NAME": "growth inhibition",
    "ASSAY VALUE": 2
  },
  {
    "COMPOUND": "CSC(=Nc1ccccc1)NC(=O)Nc1ccc(Cl)cc1",
    "PROPERTY NAME": "growth inhibition",
    "ASSAY VALUE": -8
  },
  {
    "COMPOUND": "COc1cccc2c1[n+]([O-])c1cccc(O)c1[n+]2[O-]",
    "PROPERTY NAME": "growth inhibition",
    "ASSAY VALUE": 98
  },
  {
    "COMPOUND": "CCCC(=O)N(C(=O)CCC)C1=C(Cl)C(=O)c2ccccc2C1=O",
    "PROPERTY NAME": "growth inhibition",
    "ASSAY VALUE": 55
  },
  {
    "COMPOUND": "NC(=S)NNC(=O)c1cccnc1",
    "PROPERTY NAME": "growth inhibition",
    "ASSAY VALUE": 4
  },
  {
    "COMPOUND": "Nc1cccc2c(O)cccc12",
    "PROPERTY NAME": "growth inhibition",
    "ASSAY VALUE": -1
  },
  {
    "COMPOUND": "Nc1cccc2c1C(=O)c1cccc(Cl)c1C2=O",
    "PROPERTY NAME": "growth inhibition",
    "ASSAY VALUE": 31
  },
  {
    "COMPOUND": "O=Cc1ccc(-c2nccc3c2[nH]c2ccccc23)o1",
    "PROPERTY NAME": "growth inhibition",
    "ASSAY VALUE": 23
  },
  {
    "COMPOUND": "CCOc1c(N=Nc2ccc(OC)cc2)c(-c2ccccc2)nn1C(N)=S",
    "PROPERTY NAME": "growth inhibition",
    "ASSAY VALUE": 4
  },
  {
    "COMPOUND": "CCN(CC)CCCC(C)Nc1cc(F)cc2cccnc12 (stereo not drawn)",
    "PROPERTY NAME": "growth inhibition",
    "ASSAY VALUE": 10
  },
  {
    "COMPOUND": "CCc1cccc(C)c1NC(=O)C1=C(C)NC(C)=C(C(=O)Nc2c(C)cccc2CC)C1c1ccc2c(c1)OCO2",
    "PROPERTY NAME": "growth inhibition",
    "ASSAY VALUE": 32
  },
  {
    "COMPOUND": "CN(C)c1ccc(-c2c(C#N)c(S)n(NS(=O)(=O)c3ccccc3)c(=O)c2C#N)cc1",
    "PROPERTY NAME": "growth inhibition",
    "ASSAY VALUE": 94
  },
  {
    "COMPOUND": "CCN(CCCOc1ccccc1)CCN(CC)CCCOc1ccccc1",
    "PROPERTY NAME": "growth inhibition",
    "ASSAY VALUE": 1
  },
  {
    "COMPOUND": "CC(=O)N1C/C(=C\\c2ccccc2)C(=O)/C(=C/c2ccccc2)C1",
    "PROPERTY NAME": "growth inhibition",
    "ASSAY VALUE": 60
  },
  {
    "COMPOUND": "Nc1nnc2nc(CC(=O)c3ccccc3)/c(=C/C(=O)c3ccccc3)n12",
    "PROPERTY NAME": "growth inhibition",
    "ASSAY VALUE": -21
  }
]
